Target Desc: Sirt4 (Homo sapiens)
Sequence (Q9Y6E7 25-314): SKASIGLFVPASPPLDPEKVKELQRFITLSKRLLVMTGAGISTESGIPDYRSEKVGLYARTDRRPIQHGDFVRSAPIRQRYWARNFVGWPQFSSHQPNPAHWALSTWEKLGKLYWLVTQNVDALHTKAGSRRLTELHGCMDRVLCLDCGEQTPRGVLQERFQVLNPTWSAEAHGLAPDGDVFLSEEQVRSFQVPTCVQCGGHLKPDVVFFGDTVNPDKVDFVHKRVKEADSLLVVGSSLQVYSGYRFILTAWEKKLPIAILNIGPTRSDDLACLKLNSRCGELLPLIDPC
pIC50: −log10 of the molar value.
Experimental Readout: pIC50

• NC(=O)C1=CN([C@@H]2O[C@H](COP(=O)(O)OP(=O)(O)OC[C@H]3O[C@@H](n4cnc5c(N)ncnc54)[C@H](O)[C@@H]3O)[C@@H](O)[C@H]2O)C=CC1 [NADH] = 3.85
